biological target: recombinant HA, subtype H3 (A/Wyoming/3/2003(H3N2)) (influenza A virus A/Wyoming/3/2003 …); test: ELISA, coated HA, IgG 5 µg/ml
value_type: OD 492 nm
Respond with the figure and its unit, in that order.

CR6268 (antibody, V domains shown) VH: QVQLVQSGAEVKKPGSSVKVSCKASGGTFSSYAISWVRQAPGQGLEWMGGIMGMFGTTNYAQKFQGRVTITADEFTSAAYMELRSLRSEDTAVYYCARSSGYYPEYFQDWGQGTLVTVSS VL: QSVLTQPPSESVSPGQTASVTCSGHKLGDKYVSWYQQKPGQSPVLLIYQDNRRPSGIPERFIGSNSGNTATLTISGTQALDEADYYCQAWDSSTAVFGGGTKLTVLG :: 0.08 OD 492 nm
CR6255 (antibody, V domains shown) VH: EVQLVESGAEVKKPGSSVKVSCKASGGPFRSYAISWVRQAPGQGPEWMGGIIPIFGTTKYAPKFQGRVTITADDFAGTVYMELSSLRSEDTAMYYCAKHMGYQVRETMDVWGKGTTVTVSS VL: SYVLTQPPSASGTPGQRVTISCSGSTFNIGSNAVDWYRQLPGTAPKLLIYSNNQRPSGVPDRFSGSRSGTSASLAISGLQSEDEADYYCAAWDDILNVPVFGGGTKLTVLG :: 0.08 OD 492 nm
CR6332 (antibody, V domains shown) VH: QVQLVQSGAEVKKPGSSVKVSCKASGGPFRNFAINWVRQAPGQGLEWMGGIIAVFGTTKYAHKFQGRVTITADDSTNTAYMELGSLKSEDTAVYYCARGPHYYSSYMDVWGEGTTVTVSS VL: DIQLTQSPSSLSASVGDRVTITCRASQGISTYLAWYQQKPGKVPKLLIYAASTLQSGVPSRFSGSGSGTDFTLTISSLQPEDVATYYCQKYNSAPSFGPGTKVDIKR :: 0.15 OD 492 nm
CR6325 (antibody, V domains shown) VH: EVQLVESGAEVKKPGSSVKVSCKASGGTFSFYSMSWVRQAPGQGLEWMGGIIPMFGTTNYAQKFQGRVTITAVESTSTAYMEVSSLRSEDTAVYYCARGDKGIYYYYMDVWGKGTTVTVSS VL: QSALTQPASVSGSPGQSITISCTGTSSDVGGYNYVSWYQQHPGKAPKLMIYEVSNRPSGVSNRFSGSKSGNTASLTISGLQAEDEADYYCSSYTSSSTLVFGTGTKVTVLG :: 0.07 OD 492 nm

Consider now this further binder.
Dear colleague, I am looking for the recorded OD 492 nm of the following binder: CR6344 (antibody, V domains shown) VH: QVQLVQSGAEVKKPGSSVRVSCKASGSIFRNYAMSWVRQAPGQGLEWMGGIIAIFGTPKYAQKFQGRVTITADESTSTVYMELSGLRSEDTAMYYCARIPHYNFGSGSYFDYWGQGTLVTVSS VL: TVLTQPPSVSGAPGQRVTISCTGSSSNIGAGYDVHWYQQLPGTAPKLLIYGNSNRPSGVPDRFSGSKSGTSATLGITGLQTGDEADYYCGTWDSSLSAYVFGTGTKVTVLG
0.09 OD 492 nm
